# inhibition listing for each entry below
Assay: inhibitors of TNFa-induced NFkB p65 translocation, primary screen, imaging, HUVEC, MLSMR starter and 10KST1 sets (AID 438);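 note: compound added about 3h40 before a 20 min TNFalpha stimulation; signal is the nuclear over cytoplasmic p65 intensity ratio per well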
Conditions: HUVEC TNFa-induced p65 nuclear translocation; at 2 µM, active compounds read high, 0% TNFa-plus-vehicle, 100% no-TNFa wells
measurementName: inhibition (%)

compound: Cc1c(C(=O)O)sc2ncn(C)c(=O)c12
endpointResult: 2.8
//
compound: Cc1cc(C(=O)Cn2cncn2)c(C)n1CCc1ccc(F)cc1
endpointResult: -2.5
//
compound: C#CCSc1nnc(-c2ccccc2)c(=O)[nH]1
endpointResult: -8.2
//
compound: CCN1CCN(Cc2ccc(NC(=O)Nc3ccccc3)cc2)CC1
endpointResult: -7.5
//
compound: Cc1ccc(NC(=O)COc2nc(C)cs2)cc1
endpointResult: 4.5
//
compound: COc1ccccc1N(CC(=O)NC1CCCC1)C(=O)c1csnn1
endpointResult: -1.7
//
compound: CCOC(=O)CNc1ccc2c(c1)OCO2
endpointResult: -7.7
//
compound: CC(C)C(C(=O)Nc1ccc2c(c1)OCO2)N1C(=O)c2ccccc2C1=O (configuration not stated)
endpointResult: -1
//
compound: O=C(c1ccco1)c1nnn(Cc2ccccc2)c1-c1ccccc1
endpointResult: -4.3
//
compound: COCC(=O)N(Cc1ccc(OC)cc1)Cc1nc2ccccc2c(=O)[nH]1
endpointResult: 6.5
//
compound: c1ccc2c(SCc3cn4cccnc4n3)ncnc2c1
endpointResult: -14.3
//
compound: COc1ccccc1CC(=O)Nc1ccc(OC)c(OC)c1
endpointResult: -8.4

Origin of the recorded values: PubChem BioAssay
